Recorded values, source the RNAGym collection of RNA variant scans (doi:10.1126/science.aae0568).

B1: tRNA (parent)
chain: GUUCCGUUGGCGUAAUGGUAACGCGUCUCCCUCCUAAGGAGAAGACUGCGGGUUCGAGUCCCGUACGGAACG

variants of: B1; test: yeast fitness relative to wild type (ratio to wild type); higher = fitter; tRNA-Arg(CCU), competitive growth, 37 C, YPD
Fewer inactive variants are shown than the library holds.
Result type: yeast fitness
API note: the answer field is a bare number with no unit suffix.

Qu. What does the data say about its yeast fitness? Entry: G39C U53C
Ans. 0.747

Qu. What does the data say about its yeast fitness? Entry: U3A G58A
Ans. 1.01

Qu. What does the data say about its yeast fitness? Entry: U13A C46U G67C
Ans. 0.53

Qu. What does the data say about its yeast fitness? Entry: A42U A45U A69U
Ans. 0.707

Qu. What does the data say about its yeast fitness? Entry: C11U U19C G23A G25A C55U
Ans. 0.537

Qu. What does the data say about its yeast fitness? Entry: A21G C31A
Ans. 0.962

Qu. What does the data say about its yeast fitness? Entry: U13G C22U G25A
Ans. 1.01

Qu. What does the data say about its yeast fitness? Entry: A21G A45C U59C A69G
Ans. 0.539

Qu. What does the data say about its yeast fitness? Entry: A57G A65G C66U
Ans. 0.65

Qu. What does the data say about its yeast fitness? Entry: G6A U16A G25C
Ans. 0.644

Qu. What does the data say about its yeast fitness? Entry: C5A G48A
Ans. 0.871

Qu. What does the data say about its yeast fitness? Entry: C5A A65C
Ans. 0.839

Qu. What does the data say about its yeast fitness? Entry: G12A A57G
Ans. 0.909

Qu. What does the data say about its yeast fitness? Entry: C4G G41A
Ans. 0.768

Qu. What does the data say about its yeast fitness? Entry: C5A U16C A21C C33U A40G U54G C62G
Ans. 0.577
